Overview of recorded Rat.Clint_uL.min-1_million.cells-1 for various molecules
system: primary rat hepatocytes; test: Intrinsic hepatic clearance (Clint) assay in primary rat hepatocytes; settings: pooled male cryopreserved rat hepatocytes; clearance at 1 μM if measured, otherwise 10 μM; zero assumed if no disappearance of parent over two hours; This Work
property.label: Rat.Clint_uL.min-1_million.cells-1 (uL.min-1_million.cells-1)

{"molecule": "CCCCCCCOC(=O)c1ccc(O)cc1 [Heptylparaben]", "measured": 311.2}
{"molecule": "CC[C@H](c1ccc(O)cc1)[C@@H](CC)c1ccc(O)cc1 [Meso-hexestrol, reference compound]", "measured": 71.8}
{"molecule": "O=P(c1ccccc1)(c1ccccc1)c1ccccc1 [Triphenylphosphine oxide]", "measured": 0}
{"molecule": "Oc1ccc2ccccc2c1 [2-naphthalenol]", "measured": 119}
